# target_entity: human HSL (Homo sapiens, UniProt Q05469)
# Construct: overlapping PCR to generate a full length human HSL ORF with a 3′-His6 tag; His6 (C)
# Sequence (Q05469 whole entry): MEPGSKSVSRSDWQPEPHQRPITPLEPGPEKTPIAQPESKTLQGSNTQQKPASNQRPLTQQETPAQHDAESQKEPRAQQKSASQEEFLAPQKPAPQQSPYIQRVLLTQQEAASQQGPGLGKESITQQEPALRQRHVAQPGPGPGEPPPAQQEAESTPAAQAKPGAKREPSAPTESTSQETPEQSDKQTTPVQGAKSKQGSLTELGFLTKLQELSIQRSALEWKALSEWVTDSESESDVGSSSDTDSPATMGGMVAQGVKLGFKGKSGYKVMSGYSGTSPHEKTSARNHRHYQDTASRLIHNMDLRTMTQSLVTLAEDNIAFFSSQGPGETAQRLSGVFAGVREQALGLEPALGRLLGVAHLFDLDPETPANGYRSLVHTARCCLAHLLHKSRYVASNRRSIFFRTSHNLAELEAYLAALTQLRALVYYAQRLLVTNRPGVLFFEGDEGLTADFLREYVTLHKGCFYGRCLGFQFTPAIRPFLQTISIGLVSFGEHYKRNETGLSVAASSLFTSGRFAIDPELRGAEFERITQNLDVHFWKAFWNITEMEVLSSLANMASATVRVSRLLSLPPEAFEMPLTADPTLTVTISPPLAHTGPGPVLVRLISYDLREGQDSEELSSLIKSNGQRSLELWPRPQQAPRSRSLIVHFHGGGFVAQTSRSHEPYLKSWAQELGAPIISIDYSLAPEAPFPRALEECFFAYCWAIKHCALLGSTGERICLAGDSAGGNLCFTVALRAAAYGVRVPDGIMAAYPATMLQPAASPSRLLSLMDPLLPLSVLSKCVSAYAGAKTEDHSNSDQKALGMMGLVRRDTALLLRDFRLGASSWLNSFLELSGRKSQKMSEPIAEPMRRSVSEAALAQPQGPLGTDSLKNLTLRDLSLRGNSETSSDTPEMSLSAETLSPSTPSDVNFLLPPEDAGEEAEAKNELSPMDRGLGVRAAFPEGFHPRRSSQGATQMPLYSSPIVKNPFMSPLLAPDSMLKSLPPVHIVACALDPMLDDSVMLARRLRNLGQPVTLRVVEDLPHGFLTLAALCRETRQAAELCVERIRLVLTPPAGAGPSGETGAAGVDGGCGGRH
# assay_comment: Human Hormone-Sensitive Lipase (HSL) Enzyme Inhibition Assay
# particulars: colorimetric assay, 2,3-dimercapto-1-propanol tributyrate (DMPT) substrate, 37° C. for 20 minutes, absorbance at 405 nm; read-out: HSL hum IC50
observable: pIC50
Scale note: pIC50 = -log10(concentration in M).

compound: CC(C)Oc1ccc(N2CCC3(CCN(S(=O)(=O)c4ccccc4)CC3)C2=O)cc1
observable: pIC50
readout_number: 7.40
--
compound: CC(C)(C)CC(=O)N1CCC2(CC1)CCN(c1ccc(OCC(F)(F)F)nc1)C2=O
observable: pIC50
readout_number: 6.27
--
compound: O=C1N(c2ccc(OC(F)(F)F)cc2)CCC12CCN(S(=O)(=O)C1CC1)CC2
observable: pIC50
readout_number: 6.89

human HSL (Homo sapiens, UniProt Q05469) data for `O=C1N(c2ccc(OC(F)(F)F)cc2)CCC12CCN(S(=O)(=O)/C=C1/CCCO1)CC2` ; its pIC50: 6.82

human HSL (Homo sapiens, UniProt Q05469) data for `CC(C)CS(=O)(=O)N1CCC2(CCN(c3ccc(OS(C)(=O)=O)cc3)C2=O)CC1` ; its pIC50: 6.60

human HSL (Homo sapiens, UniProt Q05469) data for `Cc1noc(C)c1S(=O)(=O)N1CCC2(CCN(c3ccc(OC(C)C)cc3)C2=O)CC1` ; its pIC50: 6.96

human HSL (Homo sapiens, UniProt Q05469) data for O=C1N(c2ccc(OC3CCOC3)cc2)CCC12CCN(S(=O)(=O)c1ccccc1Cl)CC2 (stereo not shown) ; its pIC50: 7.40

human HSL (Homo sapiens, UniProt Q05469) data for CC(CNS(=O)(=O)N1CCC2(CCN(c3ccc(OC(F)(F)F)cc3)C2=O)CC1)c1ccccc1 (stereo not shown) ; its pIC50: 6.82
